target: MMP-9 (Homo sapiens); construct: from tissue; host or cells: human polymorphonuclear leukocytes (PMN) from whole blood (New York Blood Center), PMA-stimulated supernatant; experiment: Thiopeptilide MMP-9 Inhibition Assay; type: biochemical; conditions: at 5 μM; read-out: MMP-9: Thiopep. % inhibition
Sequence (P14780 107-707 limits assumed): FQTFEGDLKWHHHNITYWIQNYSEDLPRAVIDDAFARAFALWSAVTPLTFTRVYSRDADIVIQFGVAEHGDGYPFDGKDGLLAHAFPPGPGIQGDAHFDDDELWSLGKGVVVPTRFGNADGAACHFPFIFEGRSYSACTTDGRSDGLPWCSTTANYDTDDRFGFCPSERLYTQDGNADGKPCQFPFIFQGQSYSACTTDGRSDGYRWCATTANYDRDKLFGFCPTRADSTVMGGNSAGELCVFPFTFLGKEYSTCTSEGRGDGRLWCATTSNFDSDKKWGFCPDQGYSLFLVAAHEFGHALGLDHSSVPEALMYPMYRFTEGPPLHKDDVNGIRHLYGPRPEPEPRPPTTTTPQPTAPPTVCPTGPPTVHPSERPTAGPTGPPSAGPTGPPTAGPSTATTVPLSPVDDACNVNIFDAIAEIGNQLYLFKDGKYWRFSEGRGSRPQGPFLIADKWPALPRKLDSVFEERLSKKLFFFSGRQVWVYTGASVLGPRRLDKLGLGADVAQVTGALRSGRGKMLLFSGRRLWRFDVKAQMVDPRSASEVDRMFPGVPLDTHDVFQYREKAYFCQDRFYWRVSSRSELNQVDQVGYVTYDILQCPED
Definition: the class of an entry is the range in band 1 = under 9%, band 2 = from 9% up to 30%, band 3 = 30% and over that contains its inhibition at 5 µM.

>  <compound>
C=C(CC(=O)c1ccc(C)cc1)C(=O)O [Example 28, reference compound]

>  <target_under_test>
MMP-9 (Homo sapiens)

>  <category_label>
band 1

$$$$
>  <compound>
CC(CC(=O)O)CC(=O)c1ccc(-c2ccc(Cl)cc2)cc1 (stereo not drawn) [Example 332, reference compound]

>  <target_under_test>
MMP-9 (Homo sapiens)

>  <category_label>
band 3

$$$$
>  <compound>
CC(C)CC(CC(=O)c1ccc(Cl)cc1)C(=O)O (stereo not drawn) [Example 27, reference compound]

>  <target_under_test>
MMP-9 (Homo sapiens)

>  <category_label>
band 2

$$$$
>  <compound>
CC(C)C[C@H](CC(=O)c1ccc(-c2ccc(Cl)cc2)cc1)C(=O)O

>  <target_under_test>
MMP-9 (Homo sapiens)

>  <category_label>
band 1

$$$$
>  <compound>
O=C(O)CCC(=O)c1ccc(-c2cccc(Cl)c2)cc1 [Example 12, reference compound]

>  <target_under_test>
MMP-9 (Homo sapiens)

>  <category_label>
band 1

$$$$
>  <compound>
C[C@H](C(=O)c1ccc(-c2ccc(Cl)cc2)cc1)[C@@H](C)C(=O)O (relative stereo)

>  <target_under_test>
MMP-9 (Homo sapiens)

>  <category_label>
band 1

$$$$
>  <compound>
O=C(O)[C@H]1C2CCC(CC2)[C@@H]1C(=O)c1ccc(-c2ccc(Cl)cc2)cc1 (relative stereo)

>  <target_under_test>
MMP-9 (Homo sapiens)

>  <category_label>
band 2

$$$$
>  <compound>
CC(C)CC(CC(=O)c1ccc(-c2ccc(O)cc2)cc1)C(=O)O (stereo not drawn)

>  <target_under_test>
MMP-9 (Homo sapiens)

>  <category_label>
band 2

$$$$
>  <compound>
O=C(CC(CCCc1ccccc1)C(=O)O)c1ccc(-c2cccc(C(F)(F)F)c2)cc1 (stereo not drawn)

>  <target_under_test>
MMP-9 (Homo sapiens)

>  <category_label>
band 2

$$$$
>  <compound>
O=C(CC(CCc1ccccc1)C(=O)O)c1ccc(-c2ccc([N+](=O)[O-])cc2)cc1 (stereo not drawn)

>  <target_under_test>
MMP-9 (Homo sapiens)

>  <category_label>
band 2

$$$$
>  <compound>
CC(C)SCC(CC(=O)c1ccc(-c2ccc(Cl)cc2)cc1)C(=O)O (stereo not drawn)

>  <target_under_test>
MMP-9 (Homo sapiens)

>  <category_label>
band 3

$$$$
>  <compound>
O=C(O)/C=C/C(=O)c1ccc(-c2ccc(Cl)cc2)cc1 [Example 29, reference compound]

>  <target_under_test>
MMP-9 (Homo sapiens)

>  <category_label>
band 3

$$$$
>  <compound>
COCCOCC(CC(=O)c1ccc(-c2ccc(Cl)cc2)cc1)C(=O)O (stereo not drawn)

>  <target_under_test>
MMP-9 (Homo sapiens)

>  <category_label>
band 3

$$$$
>  <compound>
O=C(c1ccc(-c2ccc(Cl)cc2)cc1)[C@H]1CCCC[C@H]1C(=O)O (relative stereo)

>  <target_under_test>
MMP-9 (Homo sapiens)

>  <category_label>
band 1

$$$$
>  <compound>
CC(=O)c1ccc(-c2ccc(Cl)cc2)cc1

>  <target_under_test>
MMP-9 (Homo sapiens)

>  <category_label>
band 1

$$$$
>  <compound>
O=C(CC(C(=O)O)N1CCSCC1)c1ccc(-c2ccc(Cl)cc2)cc1 (stereo not drawn)

>  <target_under_test>
MMP-9 (Homo sapiens)

>  <category_label>
band 3

$$$$
>  <compound>
O=C(c1ccc(-c2ccc(Cl)cc2)cc1)[C@H]1CCC[C@H]1C(=O)O (relative stereo)

>  <target_under_test>
MMP-9 (Homo sapiens)

>  <category_label>
band 3

$$$$
>  <compound>
Cc1ccc(CCCC(CC(=O)c2ccc(-c3ccc(Cl)cc3)cc2)C(=O)O)cc1 (stereo not drawn)

>  <target_under_test>
MMP-9 (Homo sapiens)

>  <category_label>
band 3

$$$$
>  <compound>
O=C(CC(CCCc1ccccc1)C(=O)O)c1ccc(-c2ccc(OCCCc3ccccc3)cc2)cc1 (stereo not drawn)

>  <target_under_test>
MMP-9 (Homo sapiens)

>  <category_label>
band 2

$$$$
>  <compound>
O=C(O)[C@@H]1CC=CC[C@H]1C(=O)c1ccc(-c2ccc(Cl)cc2)cc1 (relative stereo)

>  <target_under_test>
MMP-9 (Homo sapiens)

>  <category_label>
band 3

$$$$
>  <compound>
CCc1ccc(-c2ccc(C(=O)CC(CC(C)C)C(=O)O)nc2)cc1 (stereo not drawn)

>  <target_under_test>
MMP-9 (Homo sapiens)

>  <category_label>
band 2

$$$$
>  <compound>
O=C(O)CCC(=O)c1ccc(-c2ccccc2Cl)cc1 [Example 10, reference compound]

>  <target_under_test>
MMP-9 (Homo sapiens)

>  <category_label>
band 1

$$$$
>  <compound>
C=C(CC(=O)c1ccc(-c2ccc(Cl)cc2)cc1)C(=O)O [Example 23, reference compound]

>  <target_under_test>
MMP-9 (Homo sapiens)

>  <category_label>
band 1

$$$$
>  <compound>
O=C(O)CCC(=O)c1ccc(-c2ccc(F)cc2)cc1 [Example 8, reference compound]

>  <target_under_test>
MMP-9 (Homo sapiens)

>  <category_label>
band 1

$$$$
>  <compound>
CC(C)(C)OC(=O)Nc1ccc(-c2ccc(C(=O)CC(CCCc3ccccc3)C(=O)O)cc2)cc1 (stereo not drawn)

>  <target_under_test>
MMP-9 (Homo sapiens)

>  <category_label>
band 2

$$$$
>  <compound>
O=C(c1ccc(-c2ccc(Cl)cc2)cc1)[C@H]1CC[C@H]1C(=O)O (relative stereo)

>  <target_under_test>
MMP-9 (Homo sapiens)

>  <category_label>
band 2

$$$$
>  <compound>
O=C(c1ccc(-c2ccc(Cl)cc2)cc1)[C@H]1C[C@H]1C(=O)O (relative stereo) [Example 292, reference compound]

>  <target_under_test>
MMP-9 (Homo sapiens)

>  <category_label>
band 2

$$$$
>  <compound>
CC(C)CC(CC(=O)c1ccc(-c2ccc(Cl)c(Cl)c2)cc1)C(=O)O (stereo not drawn)

>  <target_under_test>
MMP-9 (Homo sapiens)

>  <category_label>
band 2

$$$$
>  <compound>
O=C(CC(CCCc1ccc(Cl)cc1)C(=O)O)c1ccc(-c2ccc(Cl)cc2)cc1 (stereo not drawn)

>  <target_under_test>
MMP-9 (Homo sapiens)

>  <category_label>
band 3

$$$$
>  <compound>
O=C(CC(CCCc1ccccc1)C(=O)O)c1ccc(-c2ccc(Cl)cc2)o1 (stereo not drawn)

>  <target_under_test>
MMP-9 (Homo sapiens)

>  <category_label>
band 2

$$$$
>  <compound>
CC(C)(CCC(=O)c1ccc(-c2ccc(Cl)cc2)cc1)C(=O)O

>  <target_under_test>
MMP-9 (Homo sapiens)

>  <category_label>
band 1

$$$$
